The following molecules are shown together with reported growth values.
- Tested on: SNB-19 CNS
- test.summary: NCI-60 one-dose screen, 48 h (100 = growth as untreated, 0 = no growth, -100 = all killed)
- test.conditions: 10 µM unless noted
- Description: Growth inhibition of the SNB-19 human tumor cell line is measured as a screen for anti-cancer activity. Cells are grown in 96 well plates and exposed to the test compound for 48 hours. Compounds are tested at a single concentration, which is 10^-5 M for most compounds. The reported endpoint is percent growth (GI% or GIPRCNT), where numbers from 0 - 100% represent growth inhibition, and numbers from -100% - 0 represent cell death. For example, a value of 40 represents 60% growth inhibition. […]
This is part of a sample that, as a whole, favours compounds with a hit. Of some 83,000 tested, about 20% had one in any assay. The source made the active and inactive calls. How the source made its calls: active means growth percent below 10; inactive means the rest.
metric: growth

molecule=O=C(CCC(=O)N(CCO)CCO)N(CCO)CCO recorded_result="108% (inactive)"
molecule=COc1cc(CNC(=O)CCCC/C=C/C(C)C)ccc1OCc1nnc(Nc2ccccc2F)o1 recorded_result="58.6% (inactive)"
molecule="COc1cc(NC(C)CCCN)c2nc(C)ccc2c1OC (stereo not drawn)" recorded_result="107% (inactive)"

----------
- Tested on: NCI-H322M lung
- test.summary: NCI-60 one-dose screen, 48 h (100 = growth as untreated, 0 = no growth, -100 = all killed)
- test.conditions: 10 µM unless noted
The panel holds about 83,000 compounds, 20% with a hit somewhere; the sample as a whole holds those more often.
metric: growth (%)

compound=COc1ccc(OC)c(Cn2cc3c(c2)-c2oncc2CC3)c1 metric=growth recorded_result=26
compound=Cc1cc2cn3c4ccc(O)cc4nc(N)c3c2cc1C metric=growth recorded_result=7.56
compound="CC1CCCCC[N+]12CCCC2 (configuration not stated)" metric=growth recorded_result=96.4
compound=CC(=O)NNC(=O)c1sc(NC(C)=O)nc1C metric=growth recorded_result=121
compound=O=C(Nc1cccc(Cn2c(=O)[nH]c3ccc(Oc4ncccn4)cc3c2=O)c1)c1cccc(F)c1 metric=growth recorded_result=86.4
compound=CCOc1ccc(Br)cc1/C=C(\C#N)c1ccc([N+](=O)[O-])cc1 metric=growth recorded_result=77.4
compound=NNC(=O)CNc1ccc2ccccc2c1 metric=growth recorded_result=115
compound=O=C1C(=O)c2ccccc2C(O)=C1CCCc1ccc(Oc2ccccc2)cc1 metric=growth recorded_result=62.2
compound=Cc1ccc(OCCn2ccc(=O)n(CCOc3ccc(Cl)cc3C(=O)c3cc(C)cc(C)c3)c2=O)cc1 metric=growth recorded_result=84.1
compound="O=C(O)CS(=O)c1ccc(Cl)cc1 (configuration not stated)" metric=growth recorded_result=87.7
compound=N#Cc1c(N)nc(Nc2nc3ccccc3[nH]2)nc1-c1ccc(Cl)cc1 metric=growth recorded_result=117
compound="CCC(CCCN1C(=O)c2ccccc2C1=O)Nc1cc(OC)cc2cccnc12 (configuration not stated)" metric=growth recorded_result=116
compound=S=C(N/N=C/c1cc(Cl)cc(Cl)c1)NC12CC3CC(CC(C3)C1)C2 metric=growth recorded_result=62.2
compound=COc1ccc(/C(=C(\c2ccccc2)[N+](=O)[O-])c2ccc(OCCN3CCCC3)cc2)cc1 metric=growth recorded_result=87.2
compound=CNc1nc2ncn(C)c2c(=O)[nH]1 metric=growth recorded_result=88.2
compound=N=C(N)N=Nc1ccc(NN=C(N)N)c2ccccc12 metric=growth recorded_result=97
compound=O=C(Nc1ccc(-n2cc(-c3ccncc3)c(-c3ccc(Cl)c(O)c3)n2)cc1)c1cc(Cl)cc(Cl)c1 metric=growth recorded_result=60.4
compound="COc1cccc(CNC(=O)c2cccc(C3CC(=O)c4c(cc(OC)c(OC)c4OC)O3)c2)c1 (configuration not stated)" metric=growth recorded_result=86.6
compound=O=Nc1ccc(O)c2ccccc12 metric=growth recorded_result=106
compound="CCCCCCCCCC(C)NC(=O)CCl (configuration not stated)" metric=growth recorded_result=96.6
compound="COC(=O)C(C)[C@H]1CC[C@@H]2[C@]1(C)CC=C1[C@]23C=C[C@]2(C[C@@H](OC(C)=O)CC[C@]12C)C(C(=O)OC)C3C(=O)OC (some centres not stated)" metric=growth recorded_result=102
compound=CCOC(=O)NC1=NCC(C)(C)S1 metric=growth recorded_result=101
compound=O=C(/C=C/c1ccc(Br)cc1)c1ccccc1 metric=growth recorded_result=106
compound=O=C(O)/C(Br)=C/c1c[nH]c2ccc(Br)cc12 metric=growth recorded_result=116
compound=C=CCN(C)C metric=growth recorded_result=114
compound=Br/C(=N\Nc1nn[nH]n1)c1ccccc1 metric=growth recorded_result=96.3
compound=O=C(CN1C(=O)NC(c2ccccc2)(c2ccccc2)C1=O)c1ccc(N2CCCC2)cc1 metric=growth recorded_result=97.4
